The compounds listed here are annotated with their pIC50.
- study_target: UniProt:P27487
- Sequence (P27487 whole entry): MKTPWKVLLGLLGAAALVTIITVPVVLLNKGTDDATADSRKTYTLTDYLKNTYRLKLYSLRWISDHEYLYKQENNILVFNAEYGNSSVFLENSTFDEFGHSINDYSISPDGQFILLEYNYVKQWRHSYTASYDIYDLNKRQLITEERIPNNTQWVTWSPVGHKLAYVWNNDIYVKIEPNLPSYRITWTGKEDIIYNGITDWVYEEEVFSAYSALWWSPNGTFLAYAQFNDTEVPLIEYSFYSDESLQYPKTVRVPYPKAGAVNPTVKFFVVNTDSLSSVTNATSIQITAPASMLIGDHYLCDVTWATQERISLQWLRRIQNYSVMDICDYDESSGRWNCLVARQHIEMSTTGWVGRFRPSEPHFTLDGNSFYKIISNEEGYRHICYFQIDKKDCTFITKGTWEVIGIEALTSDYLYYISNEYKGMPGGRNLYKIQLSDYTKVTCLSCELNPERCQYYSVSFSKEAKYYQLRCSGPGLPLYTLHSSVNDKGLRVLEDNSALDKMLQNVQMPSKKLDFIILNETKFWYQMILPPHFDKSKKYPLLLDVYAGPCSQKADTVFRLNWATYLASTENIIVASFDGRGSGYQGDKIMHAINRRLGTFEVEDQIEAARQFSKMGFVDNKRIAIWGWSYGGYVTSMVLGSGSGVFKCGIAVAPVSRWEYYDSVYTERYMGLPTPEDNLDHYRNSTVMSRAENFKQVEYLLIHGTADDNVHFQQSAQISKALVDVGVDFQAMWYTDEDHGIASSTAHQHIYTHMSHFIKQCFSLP
- experiment: DPP4 inhibition, fluorogenic substrate H-Gly-Pro-AMC
- Format: biochemical
- Set-up: purchased R&D Systems
- recorded_conditions: recombinant human DPP4
Friendly reminder that pIC50 comes from taking -log10 of the concentration in mol/L.

For orientation, consider the following solved cases.
N#C[C@@H]1C[C@H](F)CN1C(=O)CN1CC[C@H](Nc2ccc(C(=O)Nc3ccncc3)c3ncccc23)C1 5.29
N#C[C@@H]1C[C@H](F)CN1C(=O)CN1CC[C@@H](Nc2ccc(F)c3ncccc23)C1 5.77
N#C[C@@H]1C[C@H](F)CN1C(=O)CN1CCC(Nc2ccnc3c(F)cccc23)CC1 5.19
N#C[C@@H]1C[C@H](F)CN1C(=O)CN1CC[C@H](Nc2ccc(OCc3ccccc3)c3ncccc23)C1 6.24

In the following, a different compound is considered.
Q: Fill in: pIC50 of COc1ccnc2ccc(N[C@@H]3CCN(CC(=O)N4C[C@@H](F)C[C@H]4C#N)C3)cc12 is ___
A: 5.71

* * *

- study_target: recombinant human DPP7 (Homo sapiens)
- Construct: purchased R&D Systems
- experiment: DPP7 inhibition, fluorogenic substrate Lys-Pro-AMC
- Format: biochemical
- recorded_conditions: recombinant human DPP7
assay_endpoint: IC50 (nM)
API: value field is a number in nM; no unit string.

For orientation, consider the following solved cases.
CN(c1cccc2ncc(F)cc12)[C@H]1CCN(CC(=O)N2C[C@@H](F)C[C@H]2C#N)C1 5060
COc1cccc2c(OC3CCN(CC(=O)N4C[C@@H](F)C[C@H]4C#N)CC3)cc(C(F)(F)F)nc12 13500
N#C[C@@H]1C[C@H](F)CN1C(=O)CN1CC[C@H](Nc2cc(C(F)(F)F)cc3ncccc23)C1 1390

Q: Fill in: IC50 of N#C[C@@H]1C[C@H](F)CN1C(=O)CN1CC[C@H](Nc2cccc3ncccc23)C1 is ___
A: 387

Q: Fill in: IC50 of N#C[C@@H]1C[C@H](F)CN1C(=O)CN1CC[C@@H](Nc2cnc3nc(Cl)ccc3c2)C1 is ___
A: 4900

Q: Fill in: IC50 of COc1cc2nccc(O[C@H]3CCN(CC(=O)N4C[C@@H](F)C[C@H]4C#N)C3)c2cc1OC is ___
A: 2930

Q: Fill in: IC50 of COc1cc2nc(Cl)nc(NC3CCN(CC(=O)N4CCC[C@H]4C#N)CC3)c2cc1OC is ___
A: 1440

* * *

- study_target: Recombinant human FAP (Homo sapiens, UniProt Q12884)
- Construct: purchased R&D systems
- Sequence (Q12884 whole entry): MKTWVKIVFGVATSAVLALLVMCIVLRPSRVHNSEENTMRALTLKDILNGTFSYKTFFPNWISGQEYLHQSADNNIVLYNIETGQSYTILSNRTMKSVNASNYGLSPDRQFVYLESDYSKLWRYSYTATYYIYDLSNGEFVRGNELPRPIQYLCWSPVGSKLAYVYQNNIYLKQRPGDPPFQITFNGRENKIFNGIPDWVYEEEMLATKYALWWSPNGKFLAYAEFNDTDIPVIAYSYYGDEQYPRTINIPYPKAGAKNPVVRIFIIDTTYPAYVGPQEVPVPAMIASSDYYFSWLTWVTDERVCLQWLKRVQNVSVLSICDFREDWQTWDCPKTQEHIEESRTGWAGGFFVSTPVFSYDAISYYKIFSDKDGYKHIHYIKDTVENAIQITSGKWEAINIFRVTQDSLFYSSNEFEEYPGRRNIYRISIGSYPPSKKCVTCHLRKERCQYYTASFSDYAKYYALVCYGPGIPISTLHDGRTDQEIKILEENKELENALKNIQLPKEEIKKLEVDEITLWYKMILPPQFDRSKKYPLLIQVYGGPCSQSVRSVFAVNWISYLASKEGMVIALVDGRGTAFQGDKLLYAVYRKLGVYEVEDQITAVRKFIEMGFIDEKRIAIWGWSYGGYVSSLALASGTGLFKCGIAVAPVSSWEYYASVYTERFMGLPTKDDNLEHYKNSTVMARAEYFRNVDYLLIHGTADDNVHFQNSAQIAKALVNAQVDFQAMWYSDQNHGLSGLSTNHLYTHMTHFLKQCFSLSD
- experiment: FAP inhibition, fluorogenic substrate Z-Gly-Pro-AMC
- Type: biochemical
- recorded_conditions: 25° C., Z-Gly-Pro-AMC substrate
assay_endpoint: IC50 (nM)
API: value field is a number in nM; no unit string.

compound	IC50 [nM]
N#C[C@@H]1CCCN1C(=O)CN1CC[C@H](Oc2cccc3cnccc23)C1 [Example 65]	6.77

Q: Fill in: IC50 of N#C[C@@H]1CCCN1C(=O)CN1CC[C@H](NC(=O)c2cccc3ccoc23)C1 [Example 58] is ___
A: 62.5

Q: Fill in: IC50 of COc1cc(NC2CCN(CC(=O)N3CCC[C@H]3C#N)CC2)c2cccnc2c1 [Example 124] is ___
A: 3.81

Q: Fill in: IC50 of N#C[C@@H]1CCCN1C(=O)CN1CC[C@H](Nc2cccc3ccsc23)C1 [Example 21] is ___
A: 34.1
